- TARGET_SYSTEM: Helios (IKZF2) (Homo sapiens, UniProt Q96SW2+Q9UKS7)
- Sequence (Q9UKS7 whole entry): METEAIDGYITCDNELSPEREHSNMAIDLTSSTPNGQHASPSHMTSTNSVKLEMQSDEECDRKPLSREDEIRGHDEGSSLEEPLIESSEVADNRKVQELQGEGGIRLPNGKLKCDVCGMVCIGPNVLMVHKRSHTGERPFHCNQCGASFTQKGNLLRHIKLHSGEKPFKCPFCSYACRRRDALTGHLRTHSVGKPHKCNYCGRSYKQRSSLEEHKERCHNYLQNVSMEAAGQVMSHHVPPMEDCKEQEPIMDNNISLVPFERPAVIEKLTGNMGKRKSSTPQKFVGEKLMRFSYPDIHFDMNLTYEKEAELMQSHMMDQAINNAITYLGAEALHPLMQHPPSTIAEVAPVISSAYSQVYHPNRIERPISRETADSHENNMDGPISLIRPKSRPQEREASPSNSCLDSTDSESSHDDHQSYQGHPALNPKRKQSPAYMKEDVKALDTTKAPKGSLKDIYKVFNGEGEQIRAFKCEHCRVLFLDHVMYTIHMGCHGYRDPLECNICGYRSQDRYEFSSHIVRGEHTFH
- Sequence (Q96SW2 whole entry): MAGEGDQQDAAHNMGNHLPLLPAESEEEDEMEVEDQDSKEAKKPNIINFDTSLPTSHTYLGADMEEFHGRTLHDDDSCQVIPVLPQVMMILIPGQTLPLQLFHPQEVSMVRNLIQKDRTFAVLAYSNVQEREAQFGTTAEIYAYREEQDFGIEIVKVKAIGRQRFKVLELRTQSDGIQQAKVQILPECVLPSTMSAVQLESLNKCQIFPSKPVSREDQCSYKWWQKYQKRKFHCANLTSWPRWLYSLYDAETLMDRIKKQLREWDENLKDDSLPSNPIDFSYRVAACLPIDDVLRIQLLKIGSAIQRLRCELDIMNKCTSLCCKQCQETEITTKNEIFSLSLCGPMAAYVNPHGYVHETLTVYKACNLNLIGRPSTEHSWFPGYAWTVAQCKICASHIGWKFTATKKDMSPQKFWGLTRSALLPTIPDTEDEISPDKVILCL
- Sequence (Q16531 whole entry partner): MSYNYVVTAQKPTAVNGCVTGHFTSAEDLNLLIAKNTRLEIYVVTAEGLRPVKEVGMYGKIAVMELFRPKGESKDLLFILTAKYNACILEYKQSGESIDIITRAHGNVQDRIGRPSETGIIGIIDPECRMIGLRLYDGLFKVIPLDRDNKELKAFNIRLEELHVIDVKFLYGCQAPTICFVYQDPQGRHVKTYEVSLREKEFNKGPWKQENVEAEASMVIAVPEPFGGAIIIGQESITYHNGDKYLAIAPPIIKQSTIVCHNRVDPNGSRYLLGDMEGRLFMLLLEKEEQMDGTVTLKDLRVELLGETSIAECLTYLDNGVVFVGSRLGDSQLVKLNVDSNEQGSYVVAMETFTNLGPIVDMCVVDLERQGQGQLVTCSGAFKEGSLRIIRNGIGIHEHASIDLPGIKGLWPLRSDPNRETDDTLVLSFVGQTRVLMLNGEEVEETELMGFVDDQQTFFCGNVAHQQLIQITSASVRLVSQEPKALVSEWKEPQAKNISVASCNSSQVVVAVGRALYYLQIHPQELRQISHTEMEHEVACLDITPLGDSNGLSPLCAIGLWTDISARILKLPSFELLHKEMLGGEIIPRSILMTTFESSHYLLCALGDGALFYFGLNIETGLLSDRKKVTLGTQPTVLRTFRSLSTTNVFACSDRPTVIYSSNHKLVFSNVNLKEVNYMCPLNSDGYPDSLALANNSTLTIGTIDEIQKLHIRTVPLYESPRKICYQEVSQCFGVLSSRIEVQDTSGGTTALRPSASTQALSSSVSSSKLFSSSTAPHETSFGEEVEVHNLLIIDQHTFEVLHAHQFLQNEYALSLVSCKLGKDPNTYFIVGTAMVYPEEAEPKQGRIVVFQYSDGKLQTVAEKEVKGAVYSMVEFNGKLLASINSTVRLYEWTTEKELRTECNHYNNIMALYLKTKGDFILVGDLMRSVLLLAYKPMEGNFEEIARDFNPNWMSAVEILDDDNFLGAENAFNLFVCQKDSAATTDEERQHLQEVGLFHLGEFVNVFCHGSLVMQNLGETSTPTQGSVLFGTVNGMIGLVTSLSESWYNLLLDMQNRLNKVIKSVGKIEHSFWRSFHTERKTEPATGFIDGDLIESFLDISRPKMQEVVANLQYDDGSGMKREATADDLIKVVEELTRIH
- TEST: Screening of Helios protein degraders using Nano-Glo HiBiT cell line (HiBiT-IKZF2)
- Type: cell-based
- SETUP_CONDITIONS: compound 1 μM, 6 hours, HiBiT-Helios knock-in Jurkat cells; read-out: HiBiT-IKZF2 Residual amount of Helios (%) 1 μM
MEASUREMENT_LABEL: remaining activity at 1 µM (%)
Numbers only; they are read as %.

# COMPOUND, TARGET_SYSTEM, MEASUREMENT_LABEL, ENDPOINT_RESULT
records = [
    ("Cc1c(C(=O)N2CCC(c3ccc4c(c3)CN(C3CCC(=O)NC3=O)C4=O)CC2)[nH]c2c(C)c(Cl)ccc12 (stereo not drawn)", "Helios (IKZF2) (Homo sapiens, UniProt Q96SW2+Q9UKS7)", "remaining activity at 1 µM", 16.8),
]

Query string: Please supply the value of reported remaining activity at 1 µM for the item O=C1CCC(N2Cc3cc(C4CCN(C(=O)c5cc6ccc(C(F)(F)F)cc6[nH]5)CC4)ccc3C2=O)C(=O)N1 (stereo not drawn)
Result string: 41.7

Query string: Please supply the value of reported remaining activity at 1 µM for the item Cc1cc2c(C)c(C(=O)N3CCC(c4ccc5c(c4)CN(C4CCC(=O)NC4=O)C5=O)CC3)[nH]c2cc1Cl (stereo not drawn)
Result string: 26.8
